Recorded values, source PubChem BioAssay (NCI).

Documented log10(TGI) across a set of compounds
# System: MCF7 breast
# Run Description: NCI tumour cell line growth inhibition, 48 h
Property: log10(TGI) (log10 of the value in µM)

[
  {
    "Compound": "Cc1nn2c(=O)c([N+](=O)[O-])c(/C=C/c3ccc(F)cc3)nc2s1",
    "Target Or Test System": "MCF7 breast",
    "log10(TGI)": 1.12
  },
  {
    "Compound": "CCn1cc(C(=O)O)c(=O)c2cc(F)c(N3CCN(S(=O)(=O)c4ccc(Cl)cc4Cl)CC3)cc21",
    "Target Or Test System": "MCF7 breast",
    "log10(TGI)": 1.18
  },
  {
    "Compound": "S=c1ssnc1-c1cc2ccccc2o1",
    "Target Or Test System": "MCF7 breast",
    "log10(TGI)": 1.51
  },
  {
    "Compound": "CCN(CC)CCOC(COc1cc(C)cc(C)c1)COc1cc(C)cc(C)c1",
    "Target Or Test System": "MCF7 breast",
    "log10(TGI)": 0.73
  },
  {
    "Compound": "NCCCN(CCCCN(CCCN)CCCc1ccccc1)CCCc1ccccc1",
    "Target Or Test System": "MCF7 breast",
    "log10(TGI)": 0.55
  },
  {
    "Compound": "COC(=O)CN1CCN(c2cccc3c2CCCC3)CC1",
    "Target Or Test System": "MCF7 breast",
    "log10(TGI)": 1.97
  },
  {
    "Compound": "O=C(Nc1ccn(C2CC(O)C(COC(c3ccccc3)(c3ccccc3)c3ccccc3)O2)c(=O)n1)c1ccccc1 (configuration not stated)",
    "Target Or Test System": "MCF7 breast",
    "log10(TGI)": 0.92
  }
]

* * *

# Tested on: SF-268 CNS
# Run Description: NCI tumour cell line growth inhibition, 48 h
Property: TGI

[
  {
    "Molecule": "COC(=O)Cc1cc(=O)n2c3ccccc3n(C)c2c1C#N",
    "Property": "TGI",
    "Assay Result": "> 100 µM"
  },
  {
    "Molecule": "N#C/C(=C\\c1ccc(O)cc1)C(N)=O",
    "Property": "TGI",
    "Assay Result": "> 100 µM"
  },
  {
    "Molecule": "CC1(C)CC(O)CC(C)(C)N1O",
    "Property": "TGI",
    "Assay Result": "> 100 µM"
  },
  {
    "Molecule": "CN1NC(c2ccc(Cl)cc2)=C(C#N)C(=O)CC1c1ccccc1 (configuration not stated)",
    "Property": "TGI",
    "Assay Result": "> 100 µM"
  },
  {
    "Molecule": "CN(C)C(=O)C(F)(F)C(c1ccccc1)C1C(=O)N(C)C(=O)N(C)C1=O (configuration not stated)",
    "Property": "TGI",
    "Assay Result": "> 100 µM"
  },
  {
    "Molecule": "C=C1OC2OC(C)C(NC(=O)OCC(Cl)(Cl)Cl)C(OC(C)=O)C2O1 (configuration not stated)",
    "Property": "TGI",
    "Assay Result": "> 100 µM"
  },
  {
    "Molecule": "C=C1C(=O)OC2CC(C)C(/C=C/C(C)=O)=CCC12 (configuration not stated)",
    "Property": "TGI",
    "Assay Result": "> 100 µM"
  },
  {
    "Molecule": "Cc1cc(Cl)ccc1N=C1NC(=O)C(CC(=O)Nc2cccc(Cl)c2)S1 (configuration not stated)",
    "Property": "TGI",
    "Assay Result": "> 100 µM"
  },
  {
    "Molecule": "COc1cc2c(c(OC)c1OC)C(=O)c1c(O)cc(C)c(OC)c1C2=O",
    "Property": "TGI",
    "Assay Result": "> 100 µM"
  },
  {
    "Molecule": "O=C(NNC(=O)c1ccco1)c1ccco1",
    "Property": "TGI",
    "Assay Result": "> 100 µM"
  },
  {
    "Molecule": "CCOc1ccc(NC(=O)CC2SC(=Nc3ccc(C)cc3)NC2=O)cc1 (configuration not stated)",
    "Property": "TGI",
    "Assay Result": "> 100 µM"
  },
  {
    "Molecule": "O=c1cc(-c2ccccc2)oc2ccc(Cl)cc12",
    "Property": "TGI",
    "Assay Result": "> 85.3 µM"
  }
]

* * *

Documented TGI across a set of molecules
# System: NCI/ADR-RES ovarian
# Run Description: NCI tumour cell line growth inhibition, 48 h

[
  {
    "Molecule": "N=C(N)c1ccc2oc3ccc(C(=N)N)cc3c(=O)c2c1",
    "TGI": "> 100 µM"
  },
  {
    "Molecule": "CCOC(=O)C(O)(CC1=NC(C(=O)OC)(C(=O)OC)C(c2cccc(C=O)c2)O1)C(=O)OCC (centres undefined)",
    "TGI": "> 100 µM"
  },
  {
    "Molecule": "COc1ccc(OC)c2c(C(C)=O)cccc12",
    "TGI": "> 100 µM"
  },
  {
    "Molecule": "Cc1c2cc[n+](Cc3ccc(I)cc3)cc2c(C)c2c1[nH]c1ccccc12",
    "TGI": "> 25 µM"
  },
  {
    "Molecule": "COc1cc2c(c(OC)c1OC)-c1cc(I)c(O)cc1[C@@H](NC(C)=O)CC2",
    "TGI": "> 20.3 µM"
  },
  {
    "Molecule": "Cc1ccc(S(=O)(=O)N/N=C2\\C=CC3(CC2)C(=O)N(I)c2ccccc23)cc1 (centres undefined)",
    "TGI": "> 100 µM"
  },
  {
    "Molecule": "O=c1[nH]c2cc(Cl)ccc2nc1/C(=N\\Nc1ccccc1)C(O)c1ccc2c(c1)OCO2 (centres undefined)",
    "TGI": "> 100 µM"
  },
  {
    "Molecule": "CN(C)C(=O)C(F)(F)C(c1ccccc1Br)C1C(=O)N(C)C(=O)N(C)C1=O (centres undefined)",
    "TGI": "> 100 µM"
  },
  {
    "Molecule": "C[C@]12CC[C@H]3[C@@H](CC=C4C[C@@H](O)CC[C@@]43C)[C@@H]1C/C(=C\\c1cccnc1)[C@@H]2O",
    "TGI": "> 100 µM"
  }
]

* * *

# Tested on: SK-MEL-2 melanoma
# Run Description: NCI tumour cell line growth inhibition, 48 h
Documented TGI across a set of compounds

[
  {
    "Compound": "N=C(N)c1ccc2oc3ccc(C(=N)N)cc3c(=O)c2c1",
    "TGI": "> 100 µM"
  },
  {
    "Compound": "COC(=O)/C=C(C)/C=C\\COC1CCCCO1 (stereo unspecified)",
    "TGI": "> 100 µM"
  },
  {
    "Compound": "CC(C)(Oc1ccc(-c2cccc3ccccc23)cc1)C(=O)O",
    "TGI": "> 100 µM"
  },
  {
    "Compound": "S=c1ncc(-c2cncc(-c3cnc(=S)[nH]c3)n2)c[nH]1",
    "TGI": "> 100 µM"
  },
  {
    "Compound": "O=C(/C=C/c1ccc(-c2ccccc2)cc1)NCc1ccc(C(=O)NCCc2ccccc2)cc1",
    "TGI": "> 100 µM"
  },
  {
    "Compound": "O=S(=O)(c1ccccc1)N1CCCC(c2ccccc2)CC1 (stereo unspecified)",
    "TGI": "> 100 µM"
  },
  {
    "Compound": "Cc1cc(NC(=O)NCc2ccc(N3C(N)=NC(N)=NC3(C)C)cc2)ccc1S(=O)(=O)F",
    "TGI": "> 100 µM"
  },
  {
    "Compound": "Cc1cc(C)c2nc3c(c(C(O)C4CCCCN4)c2c1)CC/C3=C\\c1ccc(Cl)cc1 (stereo unspecified)",
    "TGI": "> 100 µM"
  },
  {
    "Compound": "Cn1cc(-c2cc(-c3cn(C)c4ccccc34)[nH]n2)c2ccccc21",
    "TGI": "> 100 µM"
  },
  {
    "Compound": "O=c1c(-c2nc3ccccc3c3ccccc3c2=O)nc2ccccc2c2ccccc12",
    "TGI": "> 100 µM"
  },
  {
    "Compound": "COc1cccc(NC(=O)CC(=O)NN)c1",
    "TGI": "> 100 µM"
  },
  {
    "Compound": "O=P(CN1CCOCC1)(c1ccccc1)c1ccccc1",
    "TGI": "> 100 µM"
  },
  {
    "Compound": "Cc1c(Cl)ccc2c1NC(=O)C2(O)CC(=O)c1ccc(Cl)cc1 (stereo unspecified)",
    "TGI": "> 64.2 µM"
  },
  {
    "Compound": "O=C1NC(N2CCCC(CO)C2)=N/C1=C\\c1cccs1 (stereo unspecified)",
    "TGI": "> 100 µM"
  },
  {
    "Compound": "CCCOC(=O)c1cc(O)c(O)c(O)c1",
    "TGI": "> 100 µM"
  },
  {
    "Compound": "CC[C@H](C)[C@H](NC(=O)C12C3C4C1C1C2C3C41NC)C(=O)N(C)[C@H](C[C@@H](OC(C)=O)c1nc(C(=O)N[C@@H](Cc2ccccc2)C[C@H](C)C(=O)OC)cs1)C(C)C (stereo partly specified)",
    "TGI": "> 14.3 µM"
  },
  {
    "Compound": "CCOC(=O)C(C)c1nc2cc(F)c(F)cc2[nH]c1=O (stereo unspecified)",
    "TGI": "> 100 µM"
  },
  {
    "Compound": "COC(=O)C(=O)C(C(=O)C(=O)Nc1ccc([N+](=O)[O-])cc1)c1nc2ccccc2[nH]c1=O (stereo unspecified)",
    "TGI": "> 100 µM"
  },
  {
    "Compound": "C[N+](C)(C)CC1CCC(C[N+](C)(C)C)C1=NO (stereo unspecified)",
    "TGI": "> 100 µM"
  },
  {
    "Compound": "CC1CC(=O)N(N(C)C)C2(C#N)C(=O)N=C(N)C12C#N (stereo unspecified)",
    "TGI": "> 100 µM"
  },
  {
    "Compound": "CN1NC(c2ccc(Cl)cc2)=C(C#N)C(=O)CC1c1ccccc1 (stereo unspecified)",
    "TGI": "> 100 µM"
  }
]
